assay: protein stability index of a GFP-peptide fusion (yeast GPS) (PSI 1-4); higher = more stable; sorted into four equal gates, so the index is relative within each strain; conditions: ubr1∆
Measure: protein stability index
Just the number.

In: Need protein stability index, item ETSGVTTALLKDEEIEK [MED8]
Out: 3.63

In: Need protein stability index, item STMTEPVKQSFIRKYIN [GAL11]
Out: 2.47

In: Need protein stability index, item GRNRGRPNRRGPRNTEE [RPS2]
Out: 3.45

In: Need protein stability index, item ESTTEATGNESQDATKV [YLR335W/NUP2]
Out: 3.21

In: Need protein stability index, item FAEENITHKLTKNDAGS [BRR2]
Out: 3.46

In: Need protein stability index, item TCVTCHWNLPGERIFNK [SIR2]
Out: 3.19

In: Need protein stability index, item RVFRTRFQDGTSVVSIM [SMC2]
Out: 2.31

In: Need protein stability index, item VSECIILGQTMSIGTGS [RPO31]
Out: 2.58

In: Need protein stability index, item YVIHGIELLSDLINILE [LIN1]
Out: 2.43

In: Need protein stability index, item GLRAVRKNRYVILQSDL [RPT3]
Out: 3.31

In: Need protein stability index, item LKNLLRSNFRVNLSQEA [SNU114]
Out: 2.58

In: Need protein stability index, item AKRAQFRKKRKFELGRQ [RPS8A]
Out: 3.02

In: Need protein stability index, item EKKAEYFAKLREYLEEY [RPP0]
Out: 3.54

In: Need protein stability index, item SGEPIIAATQDFITGSY [RPO31]
Out: 3.18

In: Need protein stability index, item VSKVQKRKVLELKKKRK [SRP72]
Out: 2.48

In: Need protein stability index, item NLQAKPLVGKPKTELTK [YAR002W/NUP60]
Out: 2.39
